For each entry below, report its IC50 value.
# Tested on: UniProt P09467
# Sequence (P09467 2-338 limits assumed): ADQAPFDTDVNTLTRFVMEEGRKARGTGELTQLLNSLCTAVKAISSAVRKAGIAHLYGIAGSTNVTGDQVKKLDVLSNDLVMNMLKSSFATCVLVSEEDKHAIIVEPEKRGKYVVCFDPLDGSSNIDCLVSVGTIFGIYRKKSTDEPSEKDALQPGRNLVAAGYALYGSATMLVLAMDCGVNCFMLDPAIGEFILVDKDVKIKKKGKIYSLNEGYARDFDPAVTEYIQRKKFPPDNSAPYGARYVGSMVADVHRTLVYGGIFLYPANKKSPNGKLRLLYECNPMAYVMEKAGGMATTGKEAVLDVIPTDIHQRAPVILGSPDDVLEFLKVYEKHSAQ
# Assay info: FBPase assay: inorganic phosphate release (malachite green)
# Test context: recombinant human liver FBPase, 50 μM fructose-1,6-bisphosphate, read-out at 620 nm
Answers are plain numbers, in nM.

[in] Give recorded IC50. Cn1cc(S(=O)(=O)NC(=O)Nc2ncc(Br)s2)c2cc(OCc3ccccc3)ccc21
[out] 683

[in] Give recorded IC50. COc1sc(NC(=O)NS(=O)(=O)c2cn(C)c3c(OC)cccc23)nc1C
[out] 771

[in] Give recorded IC50. COCc1nc(NC(=O)NS(=O)(=O)c2cc(C)c(CCO)s2)sc1SC
[out] 369

[in] Give recorded IC50. Cc1cccc2cc(S(=O)(=O)NC(=O)Nc3ncc(Br)s3)sc12
[out] 161

Kindly give each listed record's IC50.
1. CCc1sc(NC(=O)NS(=O)(=O)c2cc(C)c(CCO)s2)nc1C(C)C
2. CCc1nc(NC(=O)NS(=O)(=O)c2cc(C)c(CCO)s2)sc1CC

[out]
[188, 340]

Kindly give each listed record's IC50.
1. Cn1cc(S(=O)(=O)NC(=O)Nc2ncc(Br)s2)c2cccc(OCc3ccccc3)c21
2. COc1sc(NC(=O)NS(=O)(=O)c2cc(C)c(CCOC(C)=O)s2)nc1C

[out]
1. 124
2. 454

* * *

# Tested on: human liver FBPase (Homo sapiens, UniProt P09467)
# Assay info: FBPase assay: inorganic phosphate release (malachite green)
# Test context: recombinant human liver FBPase, 50 μM fructose-1,6-bisphosphate, read-out at 620 nm
For each entry below, report its pIC50 value.
One number for each entry, as −log10 of the molar value.

Some solved cases for reference:
[in] Give recorded pIC50. COC(=O)c1cccc2c(S(=O)(=O)NC(=O)Nc3ncc(Br)s3)cn(C)c12
[out] 6.19

[in] Give recorded pIC50. Cc1cc(S(=O)(=O)NC(=O)Nc2nc(-c3ccccc3)c(C)s2)cs1
[out] 6.52

[in] Give recorded pIC50. COc1cnc(NC(=O)NS(=O)(=O)c2cn(C)c3c(OC)cccc23)s1
[out] 5.88

[in] Give recorded pIC50. O=C(Nc1ncc(Br)s1)NS(=O)(=O)c1cc2ccccc2[nH]1
[out] 6.87

[in] Give recorded pIC50. Cc1ccc2sc(S(=O)(=O)NC(=O)Nc3ncc(Br)s3)cc2c1
[out] 7.05

[in] Give recorded pIC50. COCCc1sc(S(=O)(=O)NC(=O)Nc2nc3ccc(OC)nc3s2)cc1C
[out] 6.07

Kindly give each listed record's pIC50.
1. Cn1cc(S(=O)(=O)NC(=O)Nc2ncc(Br)s2)c2ccc(OCc3ccccc3)cc21
2. CCc1nc(NC(=O)NS(=O)(=O)c2cc(C)c(CCOC)s2)sc1CC
3. CCc1nc(NC(=O)NS(=O)(=O)c2cc(C)c(CCOC)s2)sc1SC
4. CC(=O)OCCc1sc(S(=O)(=O)NC(=O)Nc2nc(C)c(Br)s2)cc1C
5. COc1cnc(NC(=O)NS(=O)(=O)c2cc3cccc(OC)c3s2)s1
6. CCc1nc(NC(=O)NS(=O)(=O)c2csc(C)c2)sc1OC
7. CC(=O)OCCOc1cccc2c(S(=O)(=O)NC(=O)Nc3ncc(Br)s3)cn(C)c12
8. Cn1cc(S(=O)(=O)NC(=O)Nc2ncc(Br)s2)c2ccc(S(C)(=O)=O)cc21

[out]
1: 6.44; 2: 6.41; 3: 6.84; 4: 6.73; 5: 5.89; 6: 6.33; 7: 6.37; 8: 6.28

Kindly give each listed record's pIC50.
1. COc1ccc2nc(NC(=O)NS(=O)(=O)c3cc(C)c(CCOC(C)=O)s3)sc2n1
2. Cn1cc(S(=O)(=O)NC(=O)Nc2ncc(Br)s2)c2cc(F)ccc21
3. COc1ccc2sc(S(=O)(=O)NC(=O)Nc3ncc(Br)s3)cc2c1
4. CCc1sc(NC(=O)NS(=O)(=O)c2csc(C)c2)nc1-c1ccccc1
5. CCc1sc(NC(=O)NS(=O)(=O)c2cc(C)c(CCO)s2)nc1-c1ccccc1
6. Cc1noc(C)c1-c1cccc2cc(S(=O)(=O)NC(=O)Nc3ncc(Br)s3)sc12
7. CCc1sc(NC(=O)NS(=O)(=O)c2cc(C)c(CCOC(C)=O)s2)nc1C(C)C

[out]
1: 6.21; 2: 6.47; 3: 6.78; 4: 6.80; 5: 6.99; 6: 6.35; 7: 6.59
